- test.details: Pharmacokinetic study, IV and PO, plasma, brain and liver
- Assay type: in vivo, mouse
- run.parameters: male, C57BL/6J, mouse; plasma, PO 50 mg/kg; read-out: Kel (Lambda_z) (converted)
endpoint.name: k el
Respond with the figure and its unit, in that order.

Prompt: Any idea what k el was measured for Cc1ccc(-c2cn3cccc(C)c3n2)cc1S(=O)(=O)N1CCNCC1 [YB-537] ?
Completion: 0.000192 s⁻¹

###

- test.details: Pharmacokinetic study, IV and PO, plasma, brain and liver
- Format: in vivo, mouse
- run.parameters: male, C57BL/6J, mouse, in vivo, po, 50 mg/kg, mouse brain, acute oral dosing; read-out: clearance half life (converted)
endpoint.name: half-life

Prompt: Any idea what half-life was measured for Cc1ccc(-c2cn3cccc(C)c3n2)cc1S(=O)(=O)N1CCNCC1 ?
Completion: ~60 min

###

- test.details: Pharmacokinetic study, IV and PO, plasma, brain and liver
- Format: in vivo, mouse
- run.parameters: male, C57BL/6J, mouse; plasma, IV 10 mg/kg; read-out: AUC0→∞ (AUCINF_obs) (converted)
endpoint.name: AUC(0-inf)
Respond with the figure and its unit, in that order.

Prompt: Any idea what AUC(0-inf) was measured for Cc1ccc(-c2cn3cccc(C)c3n2)cc1S(=O)(=O)N1CCNCC1 [YB-537] ?
Completion: 867 ng·h/mL

###

- test.details: Pharmacokinetic study, IV and PO, plasma, brain and liver
- Type: in vivo, mouse
- run.parameters: male, C57BL/6J, mouse, brain, po, 50 mg/kg, PO 50 mg/kg, 15 min; read-out: Brain concentration, Mouse A-D
endpoint.name: concentration at 15 min (ng/g)
Numbers only, in ng/g.

Prompt: Any idea what concentration at 15 min was measured for Cc1ccc(-c2cn3cccc(C)c3n2)cc1S(=O)(=O)N1CCNCC1 ?
Completion: 161

###

- test.details: Pharmacokinetic study, IV and PO, plasma, brain and liver
- Type: in vivo, mouse
- run.parameters: male, C57BL/6J, mouse, brain, po, 50 mg/kg, PO 50 mg/kg, 240 min; BQL = below LLOQ; read-out: Brain concentration, Mouse A-D
endpoint.name: concentration at 240 min (ng/g)
Numbers only, in ng/g.

Prompt: Any idea what concentration at 240 min was measured for Cc1ccc(-c2cn3cccc(C)c3n2)cc1S(=O)(=O)N1CCNCC1 ?
Completion: 37

###

- test.details: Pharmacokinetic study, IV and PO, plasma, brain and liver
- Assay type: in vivo, mouse
- run.parameters: male, C57BL/6J, mouse, brain, po, 50 mg/kg, PO 50 mg/kg, 60 min; read-out: Brain concentration, Mouse A-D
- Protocol: The purpose of this study was to determine the pharmacokinetic characteristics of compound NG-537 in C57BL/6J mice following intravenous (IV) and peroral (PO) administration. Levels of NG-537 were determined in blood plasma , brain and liver over time after a single dose . 3.1 Reagents and consumables […] Solution of compound Thiamethoxam (400 ng/ml in water-methanol mixture 1:9, v/v) was used as internal standard (IS) for quantification of NG-537 in plasma samples. […]
endpoint.name: concentration at 60 min
Respond with the figure and its unit, in that order.

Prompt: Any idea what concentration at 60 min was measured for Cc1ccc(-c2cn3cccc(C)c3n2)cc1S(=O)(=O)N1CCNCC1 ?
Completion: 148 ng/g

###

- test.details: Pharmacokinetic study, IV and PO, plasma, brain and liver
- Type: in vivo, mouse
- run.parameters: male, C57BL/6J, mouse, plasma, iv, 10 mg/kg, IV 10 mg/kg, 15 min; read-out: Plasma concentration, Mouse A-D
endpoint.name: concentration at 15 min
Respond with the figure and its unit, in that order.

Prompt: Any idea what concentration at 15 min was measured for Cc1ccc(-c2cn3cccc(C)c3n2)cc1S(=O)(=O)N1CCNCC1 ?
Completion: 863 ng/mL

###

- test.details: Pharmacokinetic study, IV and PO, plasma, brain and liver
- Assay type: in vivo, mouse
- run.parameters: male, C57BL/6J, mouse; plasma, IV 10 mg/kg; read-out: MRT (MRTlast) (converted)
endpoint.name: MRT last (min)
One number for each entry, in min.

Prompt: Any idea what MRT last was measured for Cc1ccc(-c2cn3cccc(C)c3n2)cc1S(=O)(=O)N1CCNCC1 ?
Completion: 15.4

###

- test.details: Pharmacokinetic study, IV and PO, plasma, brain and liver
- Format: in vivo, mouse
- run.parameters: male, C57BL/6J, mouse, in vivo, po, 50 mg/kg, brain, PO 50 mg/kg; read-out: T1/2 (HL_Lambda_z)
endpoint.name: half-life (h)
One number for each entry, in h.

Prompt: Any idea what half-life was measured for Cc1ccc(-c2cn3cccc(C)c3n2)cc1S(=O)(=O)N1CCNCC1 ?
Completion: 1.06

###

- test.details: Pharmacokinetic study, IV and PO, plasma, brain and liver
- Type: in vivo, mouse
- run.parameters: male, C57BL/6J, mouse, liver, iv, 10 mg/kg, IV 10 mg/kg, 15 min; read-out: Liver concentration, Mouse A-D
endpoint.name: concentration at 15 min (ng/g)
Answers are plain numbers, in ng/g.

Prompt: Any idea what concentration at 15 min was measured for Cc1ccc(-c2cn3cccc(C)c3n2)cc1S(=O)(=O)N1CCNCC1 ?
Completion: 12000

###

- test.details: Pharmacokinetic study, IV and PO, plasma, brain and liver
- Format: in vivo, mouse
- run.parameters: male, C57BL/6J, mouse; brain, PO 50 mg/kg; read-out: MRT (MRTlast) (converted)
endpoint.name: MRT last (h)
One number for each entry, in h.

Prompt: Any idea what MRT last was measured for Cc1ccc(-c2cn3cccc(C)c3n2)cc1S(=O)(=O)N1CCNCC1 ?
Completion: 1.12

###

Please respond with reported pEC50 for every item in the list.
- study.target: QR2 expressed in HEK293T (Homo sapiens, UniProt P16083)
- Construct: endogenous in cells
- Sequence (P16083 whole entry): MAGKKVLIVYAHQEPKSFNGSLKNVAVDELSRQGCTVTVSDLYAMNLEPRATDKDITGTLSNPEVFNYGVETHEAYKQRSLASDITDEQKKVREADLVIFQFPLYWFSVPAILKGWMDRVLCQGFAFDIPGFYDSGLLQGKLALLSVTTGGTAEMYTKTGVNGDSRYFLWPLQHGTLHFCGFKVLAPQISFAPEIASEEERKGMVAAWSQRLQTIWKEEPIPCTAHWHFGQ
- test.details: Cellular thermal shift assay (CETSA; Tagg curves and ITDRF)
- run.parameters: 73°C, n = 3; read-out: EC50, isothermal dose-response of QR2 stabilization
Answers are plain numbers, as −log10 of the molar value.

Field: example entries. Status: answers known.
Cc1ccc(-c2cn3cccc(C)c3n2)cc1S(=O)(=O)N1CCCC1 ... 7.89
Cc1ccc(-c2cn3cccc(C)c3n2)cc1S(=O)(=O)N1CCC(C)CC1 ... 7.47

Prompt: Any idea what pEC50 was measured for Cc1ccc(-c2cn3cccc(C)c3n2)cc1S(=O)(=O)N1CCNCC1 ?
Completion: 6.89

###

- test.details: Pharmacokinetic study, IV and PO, plasma, brain and liver
- Assay type: in vivo, mouse
- run.parameters: male, C57BL/6J, mouse, plasma, iv, 10 mg/kg, IV 10 mg/kg, 60 min; read-out: Plasma concentration, Mean
endpoint.name: concentration at 60 min (ng/mL)
Give bare numbers, in ng/mL.

Prompt: Any idea what concentration at 60 min was measured for Cc1ccc(-c2cn3cccc(C)c3n2)cc1S(=O)(=O)N1CCNCC1 [YB-537] ?
Completion: 191

###

- test.details: Pharmacokinetic study, IV and PO, plasma, brain and liver
- Assay type: in vivo, mouse
- run.parameters: male, C57BL/6J, mouse, plasma, po, 50 mg/kg, PO 50 mg/kg, 480 min; three BQL, 15 marked as Grubbs outlier; read-out: Plasma concentration, Mouse A-D
- Procedure: The purpose of this study was to determine the pharmacokinetic characteristics of compound NG-537 in C57BL/6J mice following intravenous (IV) and peroral (PO) administration. Levels of NG-537 were determined in blood plasma , brain and liver over time after a single dose . 3.1 Reagents and consumables […] Solution of compound Thiamethoxam (400 ng/ml in water-methanol mixture 1:9, v/v) was used as internal standard (IS) for quantification of NG-537 in plasma samples. […]
endpoint.name: concentration at 480 min (ng/mL)
Numbers only, in ng/mL.

Prompt: Any idea what concentration at 480 min was measured for Cc1ccc(-c2cn3cccc(C)c3n2)cc1S(=O)(=O)N1CCNCC1 ?
Completion: 15
